System: TTK
Conditions: Compound Concentration (nM):1000;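 further: KINOMEscan scanMAX binding as percent activity remaining versus control; lower means stronger binding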
Parameter: Percent Control. Scope: all listed entries.

>  <compound>
Cl.O=C(O[C@H]1CN[C@H](C#Cc2cc3ncnc(Nc4ccc5c(cnn5Cc5ccccc5)c4)c3s2)C1)N1CCOCC1 [GSK200398A]

>  <Percent Control>
100%

$$$$
>  <compound>
COc1cc(C=NNc2ncnc3c2cnn3-c2ccccc2)ccc1O [GW513184X]

>  <Percent Control>
100%

$$$$
>  <compound>
COc1ccc2[nH]c3c4[nH]c5ccc(OC)cc5c4c4c(c3c2c1)C(=O)NC4=O [GW296115X]

>  <Percent Control>
50%

$$$$
>  <compound>
COc1ccc(COc2ccc(Cc3cnc(N)nc3N)cc2OC)cc1 [GW632580X]

>  <Percent Control>
85%

$$$$
>  <compound>
O=C(Nc1n[nH]c2nc(-c3ccc(O)cc3)c(Br)cc12)C1CC1

>  <Percent Control>
97%

$$$$
>  <compound>
Cl.O=C(Nc1ccc(Oc2ccc3[nH]c(NC(=O)c4ccco4)nc3c2)cc1)Nc1cc(C(F)(F)F)ccc1F [GW683134A]

>  <Percent Control>
85%

$$$$
>  <compound>
COc1ccccc1-c1cc(/C=C2\C(=O)Nc3ncc(Br)cc32)cc(Br)c1O [GW442130X]

>  <Percent Control>
97%

$$$$
>  <compound>
Cc1cc(O)cc(C)c1/C=C/c1cncc(C(N)=O)c1 [GW435821X]

>  <Percent Control>
90%

$$$$

====

Examples of compounds with documented Percent Control follow.
Test system: IGF1R
Conditions: Compound Concentration (nM):1000

>  <compound>
NS(=O)(=O)c1ccc(N/N=C2\C(=O)Nc3ccc(Cl)cc32)cc1 [GW280670X]

>  <readoutUnit>
%

>  <Percent Control>
100

$$$$
>  <compound>
Cc1cc(O)cc(C)c1/C=C/c1cncc(C(N)=O)c1 [GW435821X]

>  <readoutUnit>
%

>  <Percent Control>
100

$$$$
>  <compound>
Nc1ncnc2occ(-c3ccc(NC(=O)Nc4cc(C(F)(F)F)ccc4F)cc3)c12 [GW770249X]

>  <readoutUnit>
%

>  <Percent Control>
100

$$$$
>  <compound>
COC(=O)Nc1nc2ccc(Oc3ccc(NC(=O)Nc4cc(C(F)(F)F)ccc4F)cc3)cc2s1.Cl [GW693917A]

>  <readoutUnit>
%

>  <Percent Control>
100

$$$$
>  <compound>
NS(=O)(=O)c1ccc(N/N=C2\C(=O)Nc3ccc(C(=O)NCCc4c[nH]cn4)cc32)cc1 [GW300660X]

>  <readoutUnit>
%

>  <Percent Control>
100

$$$$
>  <compound>
COc1cccc(-c2c[nH]c3c(N/N=C/c4ccncc4)ncnc23)c1 [GW814408X]

>  <readoutUnit>
%

>  <Percent Control>
100

$$$$
>  <compound>
Cl.O=C(Nc1ccc(Oc2ccc3[nH]c(NC(=O)c4ccccc4)nc3c2)cc1)Nc1cc(C(F)(F)F)ccc1F [GW709042A]

>  <readoutUnit>
%

>  <Percent Control>
100

$$$$
>  <compound>
CN(C)c1cc2c(Nc3ccc4c(cnn4Cc4ccccc4)c3)ncnc2cn1 [GW282974X]

>  <readoutUnit>
%

>  <Percent Control>
100

$$$$

====

Tested on: CDK3
Settings: Compound Concentration (nM):1000
Percent Control overview

>  <compound>
NS(=O)(=O)c1ccc(N/N=C2\C(=O)Nc3ccc(Cl)cc32)cc1 [GW280670X]

>  <Percent Control / %>
100

$$$$
>  <compound>
COC(=O)Nc1nc2ccc(Oc3ccc(NC(=O)Nc4cc(C(F)(F)F)ccc4F)cc3)cc2s1.Cl [GW693917A]

>  <Percent Control / %>
100

$$$$
>  <compound>
CN(C)c1cc2c(Nc3ccc4c(cnn4Cc4ccccc4)c3)ncnc2cn1 [GW282974X]

>  <Percent Control / %>
100

$$$$
>  <compound>
COc1cc2ncn(-c3cc(O[C@H](C)c4ccccc4Cl)c(C(N)=O)s3)c2cc1OC [GSK237701A]

>  <Percent Control / %>
100

$$$$
>  <compound>
C/C(Nc1ccc(S(N)(=O)=O)cc1)=C1/C(=O)Nc2ccccc21 [GW335962X]

>  <Percent Control / %>
100

$$$$
>  <compound>
NS(=O)(=O)c1ccc(Nc2ncc(-c3ccccc3)o2)cc1 [GW572399X]

>  <Percent Control / %>
100

$$$$
>  <compound>
COc1cc(C)c(N(C)C(=O)CN(C)C)cc1Nc1nc(Nc2cccc(F)c2C(N)=O)c2cc[nH]c2n1 [GSK2219385]

>  <Percent Control / %>
92

$$$$
>  <compound>
CC(C)COC(=O)c1ccc2c(c1)/C(=C/Nc1ccc(S(N)(=O)=O)cc1)C(=O)N2 [GW416981X]

>  <Percent Control / %>
42

$$$$

====

Reported Percent Control is given for each of the following compounds.
Tested on: RET
Settings: Compound Concentration (nM):1000

>  <compound>
Cl.O=S1CCN(Cc2ccc(-c3ccc4ncnc(Nc5ccc(OCc6ccccc6)c(F)c5)c4c3)o2)CC1 [GW576924A]

>  <tgt>
RET

>  <Percent Control [%]>
100

$$$$
>  <compound>
COc1ccc2c(-c3ccnc(Nc4cccc(OC(F)(F)F)c4)n3)cnn2n1 [GW810372X]

>  <tgt>
RET

>  <Percent Control [%]>
100

$$$$
>  <compound>
Cl.O=C(Nc1ccc(Oc2ccc3[nH]c(NC(=O)c4ccco4)nc3c2)cc1)Nc1cc(C(F)(F)F)ccc1F [GW683134A]

>  <tgt>
RET

>  <Percent Control [%]>
0

$$$$
>  <compound>
C/C(Nc1ccc(S(N)(=O)=O)cc1)=C1/C(=O)Nc2ccccc21 [GW335962X]

>  <tgt>
RET

>  <Percent Control [%]>
96

$$$$
>  <compound>
NS(=O)(=O)c1ccc(N/N=C2\C(=O)Nc3ccc(C(=O)NCc4ccncc4)cc32)cc1 [GW300657X]

>  <tgt>
RET

>  <Percent Control [%]>
92

$$$$
>  <compound>
NS(=O)(=O)c1ccc(N/N=C2\C(=O)Nc3ccc(-c4cnco4)cc32)cc1

>  <tgt>
RET

>  <Percent Control [%]>
82

$$$$
>  <compound>
CC1=C(C(=O)Nc2ccc3[nH]ncc3c2)C(c2ccc3ccccc3c2)CC(=O)N1 (centres unmarked) [GSK270822A]

>  <tgt>
RET

>  <Percent Control [%]>
28

$$$$
>  <compound>
Nc1ncnc2occ(-c3ccc(NC(=O)Nc4cc(C(F)(F)F)ccc4F)cc3)c12 [GW770249X]

>  <tgt>
RET

>  <Percent Control [%]>
0

$$$$
>  <compound>
Cl.O=C(Nc1ccc(Oc2ccc3[nH]c(NC(=O)c4ccccc4)nc3c2)cc1)Nc1cc(C(F)(F)F)ccc1F [GW709042A]

>  <tgt>
RET

>  <Percent Control [%]>
0.6

$$$$
>  <compound>
COc1cc2ncn(-c3cc(O[C@H](C)c4ccccc4Cl)c(C(N)=O)s3)c2cc1OC [GSK237701A]

>  <tgt>
RET

>  <Percent Control [%]>
54

$$$$
>  <compound>
COc1cc(/C=N/Nc2ncnc3[nH]ncc23)ccc1O [GW578748X]

>  <tgt>
RET

>  <Percent Control [%]>
5.9

$$$$
>  <compound>
COc1cccc(-n2ncc3c(N/N=C/c4ccncc4)ncnc32)c1 [GW784752X]

>  <tgt>
RET

>  <Percent Control [%]>
97

$$$$
>  <compound>
CN(C)CCNC(=O)Nc1ccc(N(C)c2ccnc(Nc3ccc(CS(C)(=O)=O)cc3)n2)cc1.Cl [GW830900A]

>  <tgt>
RET

>  <Percent Control [%]>
60

$$$$
>  <compound>
NS(=O)(=O)c1ccc(N/N=C2\C(=O)Nc3ccc(Cl)cc32)cc1 [GW280670X]

>  <tgt>
RET

>  <Percent Control [%]>
100

$$$$
>  <compound>
Cc1cc(O)cc(C)c1/C=C/c1cncc(C(N)=O)c1 [GW435821X]

>  <tgt>
RET

>  <Percent Control [%]>
100

$$$$
>  <compound>
Cl.c1ccc(Cc2nc3ccc(Nc4ncnc5ccccc45)cc3[nH]2)cc1 [GR269666A]

>  <tgt>
RET

>  <Percent Control [%]>
100

$$$$
>  <compound>
CCS(=O)(=O)c1ccc(OC)c(Nc2ncc(-c3cccc(OC)c3)o2)c1 [GW580509X]

>  <tgt>
RET

>  <Percent Control [%]>
55

$$$$
>  <compound>
CCc1ccc(Oc2nccc(-c3c(-c4ccc(F)cc4)ncn3C3CCNCC3)n2)cc1

>  <tgt>
RET

>  <Percent Control [%]>
100

$$$$
>  <compound>
CN1CCN(C(=O)c2ccc(NC(=O)Nc3ccc(N(C)c4ccnc(Nc5ccc(CS(C)(=O)=O)cc5)n4)cc3)cc2)CC1.Cl [GW830263A]

>  <tgt>
RET

>  <Percent Control [%]>
0

$$$$
>  <compound>
COc1cc(C=NNc2ncnc3c2cnn3-c2ccccc2)ccc1O [GW513184X]

>  <tgt>
RET

>  <Percent Control [%]>
44

$$$$
>  <compound>
COc1ccc2cc(-c3c(-c4ccncc4)nc(-c4ccc(S(C)(=O)=O)cc4C)n3C)ccc2c1

>  <tgt>
RET

>  <Percent Control [%]>
72

$$$$
>  <compound>
COc1ccc2[nH]c3c4[nH]c5ccc(OC)cc5c4c4c(c3c2c1)C(=O)NC4=O [GW296115X]

>  <tgt>
RET

>  <Percent Control [%]>
41

$$$$
>  <compound>
COc1ccc(COc2ccc(Cc3cnc(N)nc3N)cc2OC)cc1 [GW632580X]

>  <tgt>
RET

>  <Percent Control [%]>
100

$$$$
>  <compound>
COc1cc(C)c(N(C)C(=O)CN(C)C)cc1Nc1nc(Nc2cccc(F)c2C(N)=O)c2cc[nH]c2n1

>  <tgt>
RET

>  <Percent Control [%]>
87

$$$$
>  <compound>
O=C(Nc1n[nH]c2nc(-c3ccc(O)cc3)c(Br)cc12)C1CC1

>  <tgt>
RET

>  <Percent Control [%]>
100

$$$$
>  <compound>
COc1cc(N2CCN(C(C)C)CC2)ccc1Nc1nc(Nc2ccc(F)cc2C(=O)NC[C@@H](O)CO)c2cc[nH]c2n1 [GSK1392956A]

>  <tgt>
RET

>  <Percent Control [%]>
85

$$$$
